Cited source: patent US20250161473A1

Tested on: MDA-MB-468 cell line with high TROP-2 expression
Experiment: Inhibition test of Exatecan derivatives (payload) on in vitro proliferation of tumor cells
Type: cell-based, human
Conditions: Homo sapiens, MDA-MB-468, 72 h, read-out: IC50 of MDA-MB-468 cell proliferation inhibition in vitro
MEASUREMENT_NAME: pIC50
One number for each entry, as −log10 of the molar value.

Worked examples, 4 molecules total:
CC[C@@]1(O)C(=O)OCc2c1cc1n(c2=O)Cc2c-1nc1cc(F)c(C)c3c1c2[C@@H](NC(=O)N[C@H]1CCCNC1)CC3 [Compound 12] = 7.25
CC[C@@]1(O)C(=O)OCc2c1cc1n(c2=O)Cc2c-1nc1cc(F)c(C)c3c1c2[C@@H](NC(=O)CCCc1ccc(N)cc1)CC3 [Compound 26] = 8.48
CC[C@@]1(O)C(=O)OCc2c1cc1n(c2=O)Cc2c-1nc1cc(F)c(C)c3c1c2[C@@H](NC(=O)Cc1ccc(O)cc1)CC3 [Compound 22] = 8.59
CC[C@@]1(O)C(=O)OCc2c1cc1n(c2=O)Cc2c-1nc1cc(F)c(C)c3c1c2[C@@H](NC(=O)Cc1ccc(N)cc1F)CC3 [Compound 21] = 8.52

Hi! Can you tell me pIC50 for each of these molecules?
1. CC[C@@]1(O)C(=O)OCc2c1cc1n(c2=O)Cc2c-1nc1cc(F)c(C)c3c1c2[C@@H](NC(=O)c1ccc(O)c(Cl)c1)CC3 [Compound 6]
2. CC[C@@]1(O)C(=O)OCc2c1cc1n(c2=O)Cc2c-1nc1cc(F)c(C)c3c1c2[C@@H](NC(=O)Cc1ccccc1N)CC3 [Compound 24]
3. CC[C@@]1(O)C(=O)OCc2c1cc1n(c2=O)Cc2c-1nc1cc(F)c(C)c3c1c2[C@@H](NC(=O)c1ccc(Cl)c(O)c1)CC3 [Compound 7]
4. CC[C@@]1(O)C(=O)OCc2c1cc1n(c2=O)Cc2c-1nc1cc(F)c(C)c3c1c2[C@@H](NC(=O)C1CNC1)CC3 [Compound 1]

// result
1. 8.01
2. 8.78
3. 8.02
4. 6.87

###

Test system: MDA-MB-468 cell line with high TROP-2 expression
Assay: Inhibition test of Exatecan derivatives (payload) on in vitro proliferation of tumor cells
Format: cell-based, human
Details: Homo sapiens, MDA-MB-468, 72 h, read-out: IC50 of MDA-MB-468 cell proliferation inhibition in vitro
Give IC50 for every item shown.
Remember to follow the number with its unit.

Worked examples, 3 compounds total:
CC[C@@]1(O)C(=O)OCc2c1cc1n(c2=O)Cc2c-1nc1cc(F)c(C)c3c1c2[C@@H](NC(=O)CCc1ccc(N)cc1)CC3 = 8.63 nM
CC[C@@]1(O)C(=O)OCc2c1cc1n(c2=O)Cc2c-1nc1cc(F)c(C)c3c1c2[C@@H](NC(=O)C1CCNCC1)CC3 = 136 nM
CC[C@@]1(O)C(=O)OCc2c1cc1n(c2=O)Cc2c-1nc1cc(F)c(C)c3c1c2[C@@H](NC(=O)[C@@H]1CCCN1C(=O)CO)CC3 = 19.3 nM

Hi! Can you tell me IC50 for each of these compounds?
1. CC[C@@]1(O)C(=O)OCc2c1cc1n(c2=O)Cc2c-1nc1cc(F)c(C)c3c1c2[C@@H](NC(=O)Cc1ccc(N)cc1OC)CC3
2. CC[C@@]1(O)C(=O)OCc2c1cc1n(c2=O)Cc2c-1nc1cc(F)c(C)c3c1c2[C@@H](NC(=O)N[C@H]1CCNC1)CC3
3. CC[C@@]1(O)C(=O)OCc2c1cc1n(c2=O)Cc2c-1nc1cc(F)c(C)c3c1c2[C@@H](NC(=O)Cc1ccc(N)cc1)CC3
4. CC[C@@]1(O)C(=O)OCc2c1cc1n(c2=O)Cc2c-1nc1cc(F)c(C)c3c1c2[C@@H](NC(=O)Cc1ccc(NC(=O)CO)cc1)CC3
5. CC[C@@]1(O)C(=O)OCc2c1cc1n(c2=O)Cc2c-1nc1cc(F)c(C)c3c1c2[C@@H](NC(=O)NCC(F)(F)F)CC3
6. CC[C@@]1(O)C(=O)OCc2c1cc1n(c2=O)Cc2c-1nc1cc(F)c(C)c3c1c2[C@@H](NC(=O)N[C@@H]1CCNC1)CC3
7. CC[C@@]1(O)C(=O)OCc2c1cc1n(c2=O)Cc2c-1nc1cc(F)c(C)c3c1c2[C@@H](NC(=O)[C@@H]1CCCN1)CC3

// result
1. 7.52 nM
2. 76.5 nM
3. 3.38 nM
4. 43.6 nM
5. 2.72 nM
6. 48 nM
7. 4.32 nM
